- EXPERIMENTAL_TARGET: HCoV-NL63 M^pro (Human coronavirus NL63)
- Sequence (P0C6X5 2940-3242): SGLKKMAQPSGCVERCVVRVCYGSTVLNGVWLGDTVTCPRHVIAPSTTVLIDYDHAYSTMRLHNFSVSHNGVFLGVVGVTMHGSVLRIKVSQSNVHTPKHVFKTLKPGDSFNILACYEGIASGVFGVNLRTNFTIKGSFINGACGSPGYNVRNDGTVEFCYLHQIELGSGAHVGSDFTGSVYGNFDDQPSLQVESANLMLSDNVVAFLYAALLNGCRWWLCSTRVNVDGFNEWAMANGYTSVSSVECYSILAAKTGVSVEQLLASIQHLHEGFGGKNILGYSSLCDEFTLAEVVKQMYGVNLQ
PROPERTY_LABEL: pIC50
In textbook form, pIC50 equals minus log to base ten of the concentration in mol/L.

What is its pIC50 for HCoV-NL63 M^pro (Human coronavirus NL63)? Entry: CC(C)(C)NC(=O)NC(C(=O)N1CC2C(C1C(=O)NC(CC1CCNC1=O)C(=O)C(N)=O)C2(C)C)C(C)(C)C (stereo not shown) [MG-78]
6.48

* * *

- EXPERIMENTAL_TARGET: CVB3 3C^pro (Coxsackievirus B3)
- Sequence (P03313 1541-1723): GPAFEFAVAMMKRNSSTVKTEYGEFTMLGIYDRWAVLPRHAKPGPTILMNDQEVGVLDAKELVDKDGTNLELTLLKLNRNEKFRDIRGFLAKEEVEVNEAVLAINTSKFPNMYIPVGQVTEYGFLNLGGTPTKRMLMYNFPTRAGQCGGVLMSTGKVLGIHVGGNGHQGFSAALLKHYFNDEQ
PROPERTY_LABEL: IC50 (nM)
Give a bare numeral; the unit nM is implied.

Find the recorded IC50 belonging to CC(C)(C)NC(=O)NC(C(=O)N1CC2C(C1C(=O)NC(CC1CCNC1=O)C(=O)C(N)=O)C2(C)C)C(C)(C)C (stereo not shown) and report it.
1450

* * *

- EXPERIMENTAL_TARGET: UniProtKB Q66478
- Sequence (Q66478 1549-1731): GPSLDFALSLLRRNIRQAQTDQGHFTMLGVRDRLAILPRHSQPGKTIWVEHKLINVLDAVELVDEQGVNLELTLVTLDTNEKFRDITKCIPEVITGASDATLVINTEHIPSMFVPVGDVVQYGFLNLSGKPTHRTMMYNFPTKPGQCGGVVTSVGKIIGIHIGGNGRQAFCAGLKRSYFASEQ
PROPERTY_LABEL: pIC50
pIC50 is defined as minus the log10 of a concentration measured in mol/L.

Recorded pIC50 for CC(C)(C)NC(=O)NC(C(=O)N1CC2C(C1C(=O)NC(CC1CCNC1=O)C(=O)C(N)=O)C2(C)C)C(C)(C)C (stereo not shown) [MG-78] with UniProtKB Q66478, please?
5.17
